# Test Method Notes: qHTS assay to identify small molecule antagonists of the estrogen related receptor signaling pathway with the pleiotropic PPARgamma coactivator (PGC) from Tox21 10K library - cell viability counter screen (AID 1224840); further: nearly all actives have a fitted effect of over 40% in size
# Condition Set: PGC/ERR reporter cells viability, CellTiter-Fluor, 17.5 h; series mostly up to 92.4 µM
Inconclusive results are not listed. The source made the active and inactive calls. The call rests on the fitted dose curve; in most records, active means well fitted cell-killing curve with a large enough effect in the repeat runs (not every such curve was filed as active); inconclusive means weak or mixed curves, or effect the other way; inactive means no such curve, though single readings can be large or run the other way.
Measurement Type: outcome

molecule=COc1ccccc1OC measurement_type=outcome result=inactive
molecule="O=C(O)C(Cl)Br (stereo not given)" measurement_type=outcome result=inactive
molecule=CC(=O)CN(CC(C)=O)N=O measurement_type=outcome result=inactive
molecule=CCN[C@H](C)Cc1cccc(C(F)(F)F)c1 measurement_type=outcome result=inactive
molecule=C/C=C/CC#N measurement_type=outcome result=inactive
molecule="CC1NCCOC1c1ccccc1 (stereo not given)" measurement_type=outcome result=inactive
molecule=O=C(O)CBr measurement_type=outcome result=inactive
molecule="ClC1=C(Cl)C2(Cl)C(CBr)CC1(Cl)C2(Cl)Cl (stereo not given)" measurement_type=outcome result=inactive
molecule="COc1cc(CC(C)N)cc(OC)c1OC (stereo not given)" measurement_type=outcome result=inactive
molecule=O=C(O)C(F)(F)C(F)(F)C(F)(F)C(F)(F)C(F)(F)C(F)(F)F measurement_type=outcome result=inactive
molecule="CC(C)C(C)(N)C#N (stereo not given)" measurement_type=outcome result=inactive
molecule=CCCN1CCC[C@@H]2Cc3[nH]ncc3C[C@H]21 measurement_type=outcome result=inactive
molecule=COc1ccc(CN2CCNCC2)c(OC)c1OC measurement_type=outcome result=inactive
molecule=CCOP(=S)(OCC)SCCl measurement_type=outcome result=inactive
molecule="CCC(C)(C#N)N=NC(C)(C#N)CC (stereo not given)" measurement_type=outcome result=inactive
